Test: In vitro skin permeation, Franz diffusion cells
Settings: 24 h, saturated solution in PBS pH 7.4, mass of compound, n = 3
Marks after values point to notes of the source that are not given here.
Below, each entry is listed with its recorded Cumulative Permeation Mass.

Would you please look over these solved cases?
CC(C)Cc1ccc(C(C)C(=O)O)cc1.CC(C)OC(=O)[C@@H](N)[C@@H](C)O [[L-ThrOiPr][IBU], L-threonine isopropyl ester ibuprofenate]	714.248 ± 38.838 ^b µg·cm^−2
CC(C)Cc1ccc(C(C)C(=O)O)cc1.CC[C@H](C)[C@H](N)C(=O)OC(C)C [[L-IleOiPr][IBU]]	173.888 ± 8.815 ^b µg·cm^−2
CC(C)Cc1ccc(C(C)C(=O)O)cc1.CC(C)OC(=O)[C@H](C)N [[L-AlaOiPr][IBU], L-alanine isopropyl ester ibuprofenate]	572.719 ± 18.05 ^b µg·cm^−2
CC(C)C[C@H](N)C(=O)OC(C)C.CC(C)Cc1ccc(C(C)C(=O)O)cc1 [[L-LeuOiPr][IBU], L-leucine isopropyl ester ibuprofenate]	424.683 ± 9.060 ^b µg·cm^−2
CC(C)Cc1ccc(C(C)C(=O)O)cc1.CC(C)OC(=O)[C@@H](N)C(C)C [[L-ValOiPr][IBU], L-valine isopropyl ester ibuprofenate]	684.642 ± 56.109 ^b µg·cm^−2

Attention now shifts to the item below.
Qu. Can you look up the measured Cumulative Permeation Mass of CC(C)Cc1ccc(C(C)C(=O)O)cc1.CC(C)OC(=O)[C@@H](N)CS [[L-CysOiPr][IBU], L-cysteine isopropyl ester ibuprofenate] for me?
Ans. 541.776 ± 49.664 ^b µg·cm^−2
